Assign EC50 to each entry below.
target: Metabotropic glutamate receptor 4 (Homo sapiens); assay: Positive allosteric modulation of human mGluR4 by calcium mobilization assay
Sequence (Q14833 whole entry): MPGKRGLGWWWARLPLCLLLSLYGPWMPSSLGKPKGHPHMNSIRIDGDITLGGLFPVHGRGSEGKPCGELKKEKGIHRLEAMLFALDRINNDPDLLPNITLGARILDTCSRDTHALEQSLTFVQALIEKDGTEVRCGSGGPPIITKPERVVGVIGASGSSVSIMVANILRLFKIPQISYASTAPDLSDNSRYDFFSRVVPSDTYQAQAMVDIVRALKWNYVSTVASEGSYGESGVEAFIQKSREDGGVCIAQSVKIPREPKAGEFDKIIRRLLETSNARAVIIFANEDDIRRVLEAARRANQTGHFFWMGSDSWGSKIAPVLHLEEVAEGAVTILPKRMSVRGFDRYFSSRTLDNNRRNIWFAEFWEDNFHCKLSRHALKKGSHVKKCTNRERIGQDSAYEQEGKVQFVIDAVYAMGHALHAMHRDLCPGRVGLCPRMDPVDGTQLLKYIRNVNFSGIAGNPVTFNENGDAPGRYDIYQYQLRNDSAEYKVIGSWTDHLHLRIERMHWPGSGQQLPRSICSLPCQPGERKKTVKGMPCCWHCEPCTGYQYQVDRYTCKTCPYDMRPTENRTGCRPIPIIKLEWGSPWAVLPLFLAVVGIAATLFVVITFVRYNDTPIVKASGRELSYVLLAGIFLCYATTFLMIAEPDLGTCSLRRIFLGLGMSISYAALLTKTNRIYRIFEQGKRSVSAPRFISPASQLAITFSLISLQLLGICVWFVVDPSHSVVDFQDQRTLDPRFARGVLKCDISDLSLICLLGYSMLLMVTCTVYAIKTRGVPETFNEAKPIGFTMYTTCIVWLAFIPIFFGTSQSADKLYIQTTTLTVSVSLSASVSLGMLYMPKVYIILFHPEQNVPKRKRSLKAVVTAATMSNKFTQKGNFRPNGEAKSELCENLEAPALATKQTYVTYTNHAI
Report as a plain number; the unit nM is understood.

Reported EC50 for `Cc1cc(N2C(=O)C3=C(CCCC3)C2=O)c(F)cc1NC(=O)c1ccco1` : what is it? 89

Look up EC50: `Cc1nc(C(=O)Nc2cc(F)c(N3C(=O)C4=C(CCCC4)C3=O)cc2C)cs1` 175

What does the data say about its EC50? Entry: `Cc1cc(N2C(=O)C3=C(CCCC3)C2=O)c(F)cc1NC(=O)c1ccc(Cl)o1` 229

Recorded EC50 of `Cc1cc(N2C(=O)C3=C(CCCC3)C2=O)c(F)cc1NC(=O)c1occc1C` , please. 266
